Form field: AUC of viability dose-response curve (one value per entry).
Tested on: NOMO1
PROCEDURE SUMMARY: AUC of viability dose-response curve (% viability x log10 dose units); higher = less sensitive
CONDITION DESCRIPTION: RPMI 5 mM glucose + 10% dialyzed FBS; 48 h

# MOLECULE, AUC of viability dose-response curve
rows = [
    ("CCN1CCN(Cc2ccc(-c3cc4c(N[C@H](C)c5ccccc5)ncnc4[nH]3)cc2)CC1", 457),
    ("CCC(C)N(C)C(=O)c1cc2ccccc2c(-c2ccccc2Cl)n1 (stereo not given)", 453),
    ("CCCn1c(=O)c2[nH]c(C34CC5CC3C[C@@H](C5)C4)nc2n(CCC)c1=O", 463),
    ("C[C@H]([C@H]1C\\C(=C(CO)/C(=O)O1)C)[C@H]2CC[C@H]3[C@@H]4C[C@H]5O[C@]56[C@@H](O)\\C=C/C(=O)[C@]6(C)[C@H]4CC[C@]23C", 286),
    ("NC12CC3CC(CC(C3)C1)C2", 461),
]

* * *

Tested on: P12-Ichikawa
PROCEDURE SUMMARY: cell viability relative to DMSO control; higher = less cytotoxic
CONDITION DESCRIPTION: HPLM + 10% dialyzed FBS; 48 h; 0.00234 µM

# COMPOUND, UNIT TAG, cell viability
records = [
    ("OC1=C(C=CC=C1)C2=CC=C(C=C2)C3=CSC4=C3C(=C(/C#N)C(=O)N4)/O", "%", 127),
    ("CC1(C)CC(=O)c2c(C(F)(F)F)nn(-c3ccc(C(N)=O)c(NC4CCC(OC(=O)CN)CC4)c3)c2C1 (stereo not drawn)", "%", 86.9),
    ("COc1ccc(Cn2ccc3ccc(C(=O)NO)cc32)cc1", "%", 121),
    ("COC1=CC=C2C(=CC=NC2=C1)OC3=CC=C(NC(=O)\\C4=C(C)\\N(CC(C)(C)O)N(C4=O)C5=CC=CC=C5)C=C3F", "%", 123),
    ("Cc1cnc(Nc2ccc(OCCN3CCCC3)cc2)nc1Nc1cccc([S+](=O)([O-])NC(C)(C)C)c1", "%", 108),
    ("NC12CC3CC(CC(C3)C1)C2", "%", 98.8),
    ("CC1=C(C)C2=C(S1)[N]3C(=NN=C3[C@H](CC(=O)OC(C)(C)C)/N=C2/C4=CC=C(Cl)C=C4)C", "%", 98.2),
    ("c1cc(OCCN2CCCCC2)cc(-c2n[nH]c3ccc(-c4nc[nH]n4)cc23)c1", "%", 114),
    ("Cn1cc(-c2ccncc2)c(-c2ccc(OCc3ccc4ccccc4n3)cc2)n1", "%", 121),
    ("CCCn1c(=O)c2[nH]c(C34CC5CC3C[C@@H](C5)C4)nc2n(CCC)c1=O", "%", 107),
    ("COc1cc(N2CCC(N3CCN(C)CC3)CC2)ccc1Nc1ncnc(Nc2ccccc2[S+](=O)([O-])C(C)C)n1", "%", 117),
    ("C[C@H]1CCC/C=C/C2C[C@H](O)C[C@H]2[C@H](O)/C=C/C(=O)O1 (stereo partly drawn)", "%", 102),
    ("CN(C(=O)c1ccc(F)cc1C(F)(F)F)C1CCN(c2nnc(-c3ccnn3C)c3ccccc23)CC1", "%", 88.9),
    ("CO[C@@H]1[C@H](N(C)C(=O)c2ccccc2)C[C@H]2O[C@]1(C)n1c3ccccc3c3c4c(c5c6ccccc6n2c5c31)C(=O)NC4", "%", 111),
    ("Cc1ccccc1C(C(=O)NC1CCCCC1)N(C(=O)CNc1ccc(C#N)cc1)c1cccc(F)c1 (stereo not drawn)", "%", 113),
    ("Cn1cc(-c2ccc3ncc(Cc4ccc5ncccc5c4)n3n2)cn1", "%", 105),
    ("NC/1=N/C(=O)N(/C=C1)[C@H]2CC[C@@H](CO)O2", "%", 95.4),
    ("Nc1ccc([S+](=O)([O-])Nc2ccccn2)cc1", "%", 116),
]
